- Measurement Protocol: S. cerevisiae growth modulation with rapamycin, primary screen, strain BY4716, OD600, 96 h (AID 1091); note: test concentration not given here
- Measurement Parameters: called active from +8 up or from −8 down
Active and inactive are the calls of the source.
Tick one outcome: active, inactive

For orientation, consider the following solved cases.
CO[C@H]1O[C@H](CO)[C@@H](OC(=O)Nc2cccc(F)c2)[C@H](OC(=O)Nc2ccc3c(c2)OCO3)[C@@H]1OC(=O)Nc1ccc2c(c1)OCO2: inactive
CCCCC(=C=CC[C@H](O)c1cccc(OCCO)c1)C[C@H](O)c1cc(Cl)cc(Cl)c1O: inactive
CC(C)N1C(=O)[C@@]2(Cc3ccccc31)c1ccccc1C(=O)N(Cc1ccccc1C(F)(F)F)[C@H]2c1ccc(CO)cc1: inactive
COCCCNC(=O)[C@]1(Cc2ccccc2CN=[N+]=[N-])N=C(c2ccc(OCCCO)cc2)O[C@@H]1c1ccccc1N=[N+]=[N-]: inactive
C=CCOC(=O)[C@@H]1[C@H]2C(=O)O[C@H](c3ccccc3)[C@H](c3ccccc3)N2[C@H](c2ccc(OCCOC(=O)[C@@H]3C[C@@H]4C(=O)N[C@@H](CC(C)C)C(=O)N4[C@@H]3c3ccc(O)cc3)cc2)[C@@]12C(=O)Nc1ccc(I)cc12: active
CCCNC(=O)[C@@]1(Sc2ccc(C)cc2)CC(=O)N(Cc2cc(C(F)(F)F)cc(C(F)(F)F)c2)[C@@H]1c1ccc(CO)cc1: inactive
O=C(NCC(F)(F)F)[C@@H]1c2ccccc2C(=O)N(Cc2cc(C(F)(F)F)cc(C(F)(F)F)c2)[C@H]1c1ccc(CO)cc1: inactive
CC(C)c1ccc(NN2C(C(O)C3=C[C@H]4C[C@@H](C3)C4(C)C)C=CC3C(=O)N(c4ccccc4)C(=O)C32)cc1 (some centres undefined): inactive
CCCC1(C(=O)OC)C=C2C(=C(C(C)C)C(=O)C2C)CN1 (centres undefined): inactive
CCCC[C@@H](O)C1=C(C)Cn2c(=O)n(-c3ccccc3)c(=O)n2[C@H]1CO: inactive

Entry COC(=O)[C@@]1(Cc2ccccc2)[C@H]2c3cc(C(=O)N(C)C)n(CCF)c3C[C@H]2CN1C(=O)c1ccccc1 : call = ?
inactive

Cool, now O=C1O[C@H](c2ccccc2)[C@H](c2ccccc2)N2[C@H]1[C@@H](C(=O)Nc1nc3ccccc3s1)[C@]1(C(=O)Nc3ccccc31)[C@H]2c1ccccc1OCCO
inactive

Cool, now COc1ccc(C(O)C2C=CC3C(=O)N(c4ccccc4)C(=O)C3N2Nc2ccccc2F)c2ccccc12 (centres undefined)
inactive
